Data credit: patent US10034886B2

Reported pEC50 by item:
Target: GLP-1R (Homo sapiens)
Construct: host or cells: GLP-1R CRE-bla CHO-K1 cells
Test: EC20 GLP-1(9-36) PAM cAMP assay: dose response of compound in the presence of fixed concentration of GLP-1(9-36)
Assay type: cell-based
Settings: dose response of compound in presence of fixed concentration of GLP-1(9-36), GLP-1R CRE-bla CHO-K1 cells, read-out: EC20 GLP-1(9-36) PAM EC50
pEC50: −log10 of the molar value.

// C[C@@H](NC(=O)[C@H](Cc1ccc(-c2ncc(-c3cc(OCc4ccccc4)ncc3F)cn2)cc1)NC(=O)c1ccc(C(C)(C)C)s1)C(=O)O : pEC50 value = 5.60 to 6.10

// CCCCCCCOc1ccc(-c2cnc(-c3ccc(C[C@H](NC(=O)c4ccc(C(C)(C)C)cc4)C(=O)NC(Cc4ccc(Cl)cc4)C(=O)O)cc3)nc2)cc1 (stereo partly drawn) : pEC50 value = 5.60 to 6.10

// CCCCCCCOc1ccc(-c2cnc(-c3ccc(C[C@H](NC(=O)c4ccc(C(C)(C)C)s4)C(=O)N[C@H](C(=O)O)[C@@H](N)c4ccccc4)cc3)nc2)cc1 : pEC50 value = 5.00 to 5.30

----------
Biological target: GLP-1R (Homo sapiens, UniProt P43220)
Construct: host or cells: GLP-1R CRE-bla CHO-K1 cells
Sequence (P43220 24-463): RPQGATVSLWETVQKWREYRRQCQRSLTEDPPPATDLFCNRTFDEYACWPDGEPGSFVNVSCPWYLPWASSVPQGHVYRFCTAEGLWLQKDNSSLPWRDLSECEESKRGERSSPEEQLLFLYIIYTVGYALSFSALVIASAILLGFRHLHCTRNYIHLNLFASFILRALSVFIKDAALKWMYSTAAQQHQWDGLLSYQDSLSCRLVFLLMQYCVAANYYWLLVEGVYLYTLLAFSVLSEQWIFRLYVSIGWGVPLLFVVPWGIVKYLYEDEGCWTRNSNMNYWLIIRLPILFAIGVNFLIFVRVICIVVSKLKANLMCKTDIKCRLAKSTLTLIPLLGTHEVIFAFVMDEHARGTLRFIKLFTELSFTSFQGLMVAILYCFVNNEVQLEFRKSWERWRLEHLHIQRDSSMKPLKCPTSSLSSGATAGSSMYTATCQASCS
Sequence (P01275 100-127 partner limits assumed): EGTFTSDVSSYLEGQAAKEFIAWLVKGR
Assay: EC20 GLP-1(9-36) PAM cAMP assay: dose response of compound in the presence of fixed concentration of GLP-1(9-36)
Assay type: cell-based
Conditions: GLP-1R CRE-bla CHO-K1 cells, compound dose response with fixed concentration of GLP-1(9-36), read-out: EC20 GLP-1(9-36) PAM EC50
Reported EC50 by item:

Answered examples (2):
smiles_record: CCCCCCCOc1ccc(-c2cnc(-c3ccc(C[C@@H](NC(=O)c4ccc(C(C)(C)C)s4)C(=O)N4CC(C(=O)O)C4)cc3)nc2)cc1
assayed_system: GLP-1R (Homo sapiens, UniProt P43220)
EC50: 800 to 2500 nM

smiles_record: CCCCCCCOc1ccc(-c2nnc(-c3ccc(C[C@@H](NC(=O)c4ccc(C(C)(C)C)cc4)C(=O)N4CC(C(=O)O)C4)cc3F)s2)cc1
assayed_system: GLP-1R (Homo sapiens, UniProt P43220)
EC50: 800 to 2500 nM

Now consider the entry below.
// CC(C)c1ccc(-c2ccc(-c3cnc(-c4ccc(C[C@H](NC(=O)c5ccc(C(C)(C)C)s5)C(=O)N5CC(C(=O)O)C5)cc4)nc3)cc2)cc1 : EC50 value = < 800 nM

----------
Molecular target: GLP-1R (Homo sapiens)
Construct: host or cells: GLP-1R CRE-bla CHO-K1 cells
Experiment: EC20 GLP-1(9-36) PAM cAMP assay: dose response of compound in the presence of fixed concentration of GLP-1(9-36)
Format: cell-based
Settings: dose response of compound in presence of fixed concentration of GLP-1(9-36), GLP-1R CRE-bla CHO-K1 cells, read-out: EC20 GLP-1(9-36) PAM EC50
measurement_name: EC50

Answered examples (5):
compound: CCCCCCCOc1ccc(-c2cnc(-c3ccc(C[C@H](NC(=O)c4ccc(C(C)(C)C)s4)C(=O)NC(Cc4ccccc4)C(=O)O)cc3)nc2)cc1 (stereo partly drawn) [Compound 611]
EC50: < 800 nM

compound: C[C@@H](NC(=O)[C@H](Cc1ccc(-c2ncc(/C=C\c3ccccc3)cn2)cc1)NC(=O)c1ccc(C(C)(C)C)s1)C(=O)O [Compound 1050]
EC50: 800 to 2500 nM

compound: CCCCCCCOc1ccc(-c2cnc(-c3ccc(C[C@H](NC(=O)c4ccc(C(C)(C)C)cc4)C(=O)NCCC(=O)O)cc3)nc2)cc1C [Compound 698]
EC50: < 800 nM

compound: CCCCCCCc1ccc(-c2cnc(-c3ccc(C[C@H](NC(=O)c4ccc(C(C)(C)C)s4)C(=O)N[C@H](C)C(=O)O)cc3)nc2)cc1 [Compound 737]
EC50: < 800 nM

compound: CCCCCCCOc1ccc(-c2cnc(-c3ccc(C[C@H](NC(=O)c4ccc(C(C)(C)C)cc4)C(=O)NC(C(=O)O)c4nc(C)oc4C)cc3)nc2)cc1 (stereo partly drawn) [Compound 536]
EC50: 800 to 2500 nM

Now consider the entry below.
// Cc1cc(-c2cnc(-c3ccc(C[C@H](NC(=O)c4ccc(C(C)(C)C)s4)C(=O)N[C@H](C)C(=O)O)cc3)nc2)ccc1OC(C)C [Compound 1007] : EC50 value = 800 to 2500 nM

----------
Target: GLP-1R (Homo sapiens)
Construct: host or cells: GLP-1R CRE-bla CHO-K1 cells
Assay: EC20 GLP-1(9-36) PAM cAMP assay: dose response of compound in the presence of fixed concentration of GLP-1(9-36)
Type: cell-based
Details: dose response of compound in presence of fixed concentration of GLP-1(9-36), GLP-1R CRE-bla CHO-K1 cells, read-out: EC20 GLP-1(9-36) PAM EC50
pEC50: −log10 of the molar value.
measurement_name: pEC50

Answered examples (4):
compound: CCCCCCCOc1ccc(-c2cnc(-c3ccc(C[C@H](NC(=O)c4ccc(C(C)(C)C)s4)C(=O)N4C[C@H](C#N)C[C@H]4C(=O)O)cc3)nc2)cc1
measurement_name: pEC50
endpoint_value: > 6.10

compound: CCCCCCCOc1ccc(-c2cnc(-c3ccc(C[C@H](NC(=O)c4ccc(C(C)(C)C)s4)C(=O)N[C@@H](C(=O)O)[C@H](C)c4ccccc4)cc3)nc2)cc1
measurement_name: pEC50
endpoint_value: 5.60 to 6.10

compound: CCCCOc1cc(-c2cnc(-c3ccc(C[C@H](NC(=O)c4ccc(C(C)(C)C)s4)C(=O)N[C@H](C)C(=O)O)cc3)nc2)cc(Cl)c1OC(C)C
measurement_name: pEC50
endpoint_value: 5.60 to 6.10

compound: CCCCCCCOc1ccc(-c2cnc(-c3ccc(C[C@H](NC(=O)c4ccc(C(C)(C)C)s4)C(=O)NC(C(=O)O)C(O)C4CCCCC4)cc3)nc2)cc1 (some centres unmarked)
measurement_name: pEC50
endpoint_value: 5.30 to 5.60

// CC[C@H]1CC[C@H](c2ccc(-c3cnc(-c4ccc(C[C@H](NC(=O)c5ccc(C(C)=O)cc5)C(=O)N5CC(C(=O)O)C5)cc4)nc3)cc2)CC1 : pEC50 value = 5.30 to 5.60

----------
Target: GLP-1R (Homo sapiens, UniProt P43220)
Construct: host or cells: GLP-1R CRE-bla CHO-K1 cells
Experiment: EC20 GLP-1(9-36) PAM cAMP assay: dose response of compound in the presence of fixed concentration of GLP-1(9-36)
Type: cell-based
Settings: dose response of compound in presence of fixed concentration of GLP-1(9-36), GLP-1R CRE-bla CHO-K1 cells, read-out: EC20 GLP-1(9-36) PAM EC50
pEC50: −log10 of the molar value.
measurement_name: pEC50

molecule: CCCCCCCOc1ccc(-c2cnc(-c3ccc(C[C@H](NC(=O)c4ccc(C(C)(C)C)s4)C(=O)N[C@H](C(=O)O)C4CC4)cc3)nc2)cc1
pEC50: > 6.10
--
molecule: CC(C)(C)c1ccc(C(=O)N[C@@H](Cc2ccc(-c3ncc(-c4nc(-c5ccc(C(C)(C)C)cc5)no4)cn3)cc2)C(=O)NCCC(=O)O)cc1
pEC50: 5.60 to 6.10

// CCCCCCCOc1ccc(-c2cnc(-c3ccc(C[C@H](NC(=O)c4cnn(C(C)(C)C)c4)C(=O)N4CC[C@H](C(=O)O)C4)cc3)nc2)cc1 : pEC50 value = 5.60 to 6.10

// CCCCCCCOc1ccc(-c2cnc(-c3ccc(C[C@H](NC(=O)c4ccc(C(C)(C)C)s4)C(=O)NCC4CC4)cc3)nc2)cc1 : pEC50 value = 5.00 to 5.30

----------
Biological target: GLP-1R (Homo sapiens, UniProt P43220)
Construct: host or cells: GLP-1R CRE-bla CHO-K1 cells
Assay: EC20 GLP-1(9-36) PAM cAMP assay: dose response of compound in the presence of fixed concentration of GLP-1(9-36)
Format: cell-based
Details: dose response of compound in presence of fixed concentration of GLP-1(9-36), GLP-1R CRE-bla CHO-K1 cells, read-out: EC20 GLP-1(9-36) PAM EC50
measurement_name: EC50

molecule: CC(C)CCCOc1ccc(-c2cnc(-c3ccc(C[C@H](NC(=O)c4ccc(C(C)(C)C)s4)C(=O)N4CC[C@H](C(=O)O)C4)cc3)nc2)cc1 [Compound 773]
EC50: 0.8 to 2.5 µM
//
molecule: CCCCCCCOc1ccc(-c2cnc(-c3ccc(CC(NC(=O)c4ccc(C(C)(C)C)s4)C(=O)NCCCC(=O)O)cc3)nc2)cc1 (stereo not drawn) [Compound 429]
EC50: 2.5 to 5 µM

// CCCCCCCOc1ccc(-c2cnc(-c3ccc(C[C@H](NC(=O)c4ccc(C(C)(C)C)s4)C(=O)N4C[C@@H](C#N)C[C@H]4C(=O)O)cc3)nc2)cc1 [Compound 640] : EC50 value = < 0.8 µM

// CCCOc1ccc(-c2cnc(-c3ccc(C[C@H](NC(=O)c4ccc(C(C)(C)C)cc4)C(=O)NCCC(=O)O)cc3)nc2)cc1 [Compound 708] : EC50 value = 0.8 to 2.5 µM

// CCCCCCCOc1ccc(-c2cnc(-c3ccc(C[C@H](NC(=O)[C@H]4CC[C@H](C(C)(C)C)CC4)C(=O)N[C@H](C)C(=O)O)cc3)nc2)cc1 [Compound 833] : EC50 value = 5 to 10 µM

// CC(C)(C)c1ccc(C(=O)N[C@@H](Cc2ccc(-c3ncc(-c4ccc(OC5CC5)cc4)cn3)cc2)C(=O)N2CC(C(=O)O)C2)s1 [Compound 780] : EC50 value = 2.5 to 5 µM

// CCCCCCCOc1ccc(-c2cnc(-c3ccc(C[C@H](NC(=O)c4cnc(C(C)(C)C)nc4)C(=O)N[C@H](C)C(=O)O)cc3)nc2)cc1 [Compound 832] : EC50 value = 2.5 to 5 µM

// CCCCCCCOc1ccc(-c2cnc(-c3ccc(C[C@H](NC(=O)c4ccc(C(C)(C)C)s4)C(=O)N4CCCN(C)CC4)cc3)nc2)cc1 [Compound 963] : EC50 value = 5 to 10 µM

// CCc1ccc(/C=C/c2cnc(-c3ccc(C[C@H](NC(=O)c4ccc(C(C)(C)C)s4)C(=O)N[C@H](C)C(=O)O)cc3)nc2)cc1 [Compound 1055] : EC50 value = 2.5 to 5 µM

// CCCCCCCOc1ccc(-c2cnc(-c3ccc(C[C@H](NC(=O)c4ccc(C(C)(C)C#N)cc4)C(=O)N4CC[C@H](C(=O)O)C4)cc3)nc2)cc1 [Compound 860] : EC50 value = 0.8 to 2.5 µM

// CCCCCCCOc1ccc(-c2cnc(-c3ccc(C[C@H](NC(=O)c4ccc(C(C)(C)C)s4)C(=O)N4CC(C(=O)O)C4)cc3)nc2)cc1C [Compound 776] : EC50 value = < 0.8 µM

// CCCCCCCOc1ccc(-c2cnc(-c3ccc(C[C@H](NC(=O)c4ccc(C(C)(C)C)cc4)C(=O)N[C@@H](CC(=O)NCCO)C(=O)O)cc3)nc2)cc1 [Compound 508] : EC50 value = < 0.8 µM
